# Tested on: CAF1 mice, leiomyosarcoma No.2 ip, survival T/C%
# test name: NCI In Vivo Anticancer Drug Screen. Data for tumor model Leiomyosarcoma (No. 2) (intraperitoneal) in CAF1 mice
# experimental context: endpoint: mean survival time; dose: 50.0 mg/kg/injection; schedule: Q01DX010 (ip); vehicle: saline
Toxic doses and inconclusive results are not listed. How the source made its calls: active means survival T/C of 150% or more; inactive means T/C below 125% in these data.
Output constraint: value belongs to active, inactive

>>> class_assignment("CS(=O)(=O)OCCCCOS(C)(=O)=O")
"inactive"
>>> class_assignment("C#CCN(C)Cc1ccccc1")
"inactive"
>>> class_assignment("O=c1c(O)cccc2cc(O)c(O)c(O)c12")
"inactive"
>>> class_assignment("CCN(CC)CCNc1ccc(C)c2sc3ccccc3c(=O)c12")
"inactive"
>>> class_assignment("CS(=O)(=O)OCCC(=O)N1CCN(C(=O)CCOS(C)(=O)=O)CC1")
"active"

Enquiry: Lab log entry: "COS(C)(=O)=O" — outcome as called in the assay?
Return: inactive

Enquiry: Call for entry "Nc1nc2n[nH]nc2c(=O)[nH]1" :
Return: active
